assay: osmotic lysis modulators in infected erythrocytes, primary screen, PSAC antagonist project, cell-based, P. falciparum Indochina, OD700, 3 h (AID 1156); settings: higher = more signal, called active from +8 up or from −8 down
Label rule, in plain words: z-score of 0.1 and up is Fulfilled, under 0.1 is Not fulfilled.

| Compound | Category Label |
| --- | --- |
| COC(=O)NCC=Cc1nc(CCCO)co1 | Not fulfilled |
| CO[C@@H]1COC(=O)[C@H](CCSC)NC(=O)CC=C[C@@H](C)COC(=O)CCC[C@H]1C | Fulfilled |
| CC(C)CON=C1C[C@@H](O)[C@@H](O)[C@@H]2[C@@H]3C(=O)N(c4ccc(F)cc4F)C(=O)[C@@H]3CC[C@H]12 | Fulfilled |
| O=C1OCCC=C1C(O)CCc1ccccc1 (stereo not given) | Not fulfilled |

Next, consider the following compound.
Challenge: Has "CC(C)CCN1CCc2nc(COc3ccccc3)c3c(c2C1)CO[C@@H](C)C3" a recorded z-score greater than or equal to 0.1?
Response given: Fulfilled
